System: K-562 leukemia
Experiment: NCI tumour cell line growth inhibition, 48 h
Listing of entries alongside the reported TGI.
resultType: TGI

molecule: CN(C)S(=O)(=O)n1cnc(CO)c1
reported: > 100 µM
//
molecule: CCCCNC(=O)c1cc(NCc2cc(O)ccc2O)ccc1O
reported: 75.2 µM
//
molecule: O=c1c(NO)c([N+](=O)[O-])cnn1-c1ccccc1
reported: 1.86 µM
//
molecule: CC1(C)C2CC3C4CC5(Nc6ccccc6C5N41)[C@]3(C)CC2=O (some centres not stated)
reported: > 50 µM
//
molecule: Cc1ccc(/C=C2\CCCC(CN(C)C)C2=O)cc1 (configuration not stated)
reported: > 100 µM
//
molecule: O=C(N/N=C/c1ccccc1O)c1ccccc1Nc1ccccc1C(=O)N/N=C/c1ccccc1O
reported: > 100 µM
//
molecule: NCCSCc1ccccc1Cl
reported: 76.6 µM
//
molecule: O=[N+]([O-])c1ccccc1C=NC12CC3CC(CC(C3)C1)C2
reported: > 100 µM
//
molecule: C=C1C2CC(OC(C)=O)C3(C)C(c4ccoc4)OC(=O)[C@@H](O)[C@]13OC1C[C@H](OC(C)=O)C(C)(C)[C@H](CC(=O)OC)[C@]12C (some centres not stated)
reported: > 100 µM
//
molecule: CCN(CC)c1ccc2cc(-c3nnc(-c4ccccc4O)o3)c(=O)oc2c1
reported: > 100 µM
//
molecule: O=C1c2ccccc2CC12Cc1ccccc1C2
reported: > 100 µM
//
molecule: C#CC1(O)c2ccccc2C(=O)c2ccccc21
reported: > 100 µM
//
molecule: CCCCNC(=O)Oc1ccc(/C(=C(/C)Cc2ccc(OC)cc2)c2ccc(OCCN3CCCC3)cc2)cc1
reported: 5.13 µM
//
molecule: COC(=O)c1c[nH]c2c1-c1cc(C(=O)OCc3ccccc3)n(S(=O)(=O)c3ccc(C)cc3)c1C(=O)C2=O
reported: > 100 µM
//
molecule: CCC(=O)Nc1ccccc1C#C/C=C\C#Cc1ccccc1C(F)(F)F
reported: > 50 µM
//
molecule: O=C(CC(=O)N1N=C(N(c2ccccc2)c2ccccc2)CC1c1ccccc1)Nc1ccc(Cl)cc1 (configuration not stated)
reported: > 100 µM
//
molecule: CC(C)n1nc(-c2ccc3oc(N)nc3c2)c2c(N)ncnc21
reported: > 100 µM
//
molecule: CCOC(=O)[C@H]1Nc2ccc([N+](=O)[O-])cc2C2c3ccccc3CC21 (some centres not stated)
reported: 52.2 µM
//
molecule: O=C(O)CCc1c2ccc(=O)c(O)c-2oc2c(O)c(O)ccc12
reported: 55.2 µM
//
molecule: O=C(NCCN1CCCCC1)c1ccc(I)cc1
reported: > 100 µM
//
molecule: COc1ccc(/C=C2\Sc3nnc(CNc4ccc(Cl)cc4)n3N=C2c2cc(F)c(Cl)cc2Cl)cc1OC
reported: > 100 µM
//
molecule: CC1(S)CC2C(CC1Sc1ccccc1)C2(C)C (configuration not stated)
reported: > 100 µM
//
molecule: COc1ccc2c(c1)CC1c3c(ccc(OC)c3O)CC2N1C (configuration not stated)
reported: 58.9 µM
//
molecule: N#Cc1c(O)cc(=O)n2c1[nH]c1ccccc12
reported: > 100 µM
//
molecule: O=C(CC1(O)C(=O)Nc2ccccc21)c1ccc(O)cc1 (configuration not stated)
reported: > 100 µM
//
molecule: CN(C)c1ccc(-c2ccc(N(C)C)c3n[se]nc23)c2n[se]nc12
reported: > 100 µM
//
molecule: C[C@@H]1C2=CC[C@@]3(C)C(CCC3[C@H](C)[C@H]3C[C@@]4(C)O[C@@](c5cccnc5)(O3)OC4(C)C)[C@@H]2C2OC2[C@@]12CCC(=O)O2 (some centres not stated)
reported: > 100 µM
//
molecule: O/N=C(\CC(O)(C(F)(F)F)C(F)(F)F)c1cccc(Cl)c1
reported: > 100 µM
//
molecule: OCCNCCCOc1ccc2ncnc(Nc3ccc(Oc4cccc(C(F)(F)F)c4)c(Cl)c3)c2c1
reported: 4.48 µM
//
molecule: CC(C)(C)c1cc(OCc2nnc3sc(=S)[nH]n23)c(Cl)cc1OCc1nnc2sc(=S)[nH]n12
reported: > 100 µM
//
molecule: COc1cc(-c2n/c(=C\c3c(O)[nH]c4cc(Cl)ccc34)cc3c2=Nc2ccccc2-3)cc(OC)c1OC
reported: 48.6 µM
//
molecule: CC(C)(C)OC/C=C1\C(=O)O[C@H]2C[C@@H](O[Si](C)(C)C(C)(C)C)C[C@@H]12
reported: > 100 µM
//
molecule: Cc1nn2c(C(=O)N/N=C/c3ccc([N+](=O)[O-])cc3)c(C)nc2s1
reported: > 100 µM
//
molecule: COc1cc(-c2cc(/C=C/C(=O)c3ccc(Cl)c(Cl)c3)[nH]n2)cc(OC)c1OC
reported: 64.4 µM
//
molecule: O=c1c2cc(I)ccc2nc(SCc2n[nH]c(=S)o2)n1Cc1ccccc1
reported: 70.8 µM
//
molecule: Oc1cccc2cc(Br)cnc12
reported: 16.1 µM
//
molecule: COC(=O)C(CBr)CBr
reported: 4.29 µM
//
molecule: Cc1ccc(-c2cc(=O)c3cc(C)c(C)c(C(=O)O)c3o2)cc1N
reported: > 100 µM
//
molecule: CCCCCCCCCCCCOc1ccc(/C=C/C2=[N+](CCCl)CCO2)cc1
reported: > 100 µM
//
molecule: O=c1[nH]nc(Cn2c3ccc(Br)cc3c3nc4ccccc4nc32)n1C1CCCCC1
reported: > 100 µM
//
molecule: CN1CCN(Cc2ccc(NC(=O)c3cncc(C#Cc4cncc5nccnc45)c3)cc2C(F)(F)F)CC1
reported: 9.86 µM
//
molecule: CC(C)CC(Nc1c(O)ccc2ccccc12)C(=O)O (configuration not stated)
reported: > 100 µM
